Where do these numbers come from? They come from patent US10899754B2.

# STUDY SYSTEM: indoleamine 2, 3-dioxygenase (IDO1) (Homo sapiens, UniProt P14902)
# Sequence (P14902 whole entry): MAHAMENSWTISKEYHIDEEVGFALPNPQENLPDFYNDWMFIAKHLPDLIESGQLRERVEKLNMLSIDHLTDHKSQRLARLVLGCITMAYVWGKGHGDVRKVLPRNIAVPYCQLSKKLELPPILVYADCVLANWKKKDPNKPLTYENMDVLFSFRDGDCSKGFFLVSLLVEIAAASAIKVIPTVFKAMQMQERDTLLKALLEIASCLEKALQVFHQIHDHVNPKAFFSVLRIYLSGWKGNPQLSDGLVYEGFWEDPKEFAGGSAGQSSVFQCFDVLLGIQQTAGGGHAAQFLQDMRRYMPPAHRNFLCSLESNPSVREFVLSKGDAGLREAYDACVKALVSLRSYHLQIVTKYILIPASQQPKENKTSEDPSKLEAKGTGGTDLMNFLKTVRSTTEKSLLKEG
# TEST DETAILS: IDO1 PBMC RapidFire MS assay (kynurenine detection by mass spectrometry)
# Format: cell-based
# Parameters: to induce the expression of indoleamine 2, 3-dioxygenase (IDO1); host or cells: human PBMC stimulated with IFN-gamma and LPS
# MEASUREMENT CONDITIONS: human PBMC stimulated with IFN-γ and LPS, 2 days, pIC50, read-out: PBMC PXC50 (converted)
Hi! Just check whether IC50 is below 2 nM. Below gives Satisfied, equal or above gives Not satisfied.

# COMPOUND, CLASS
records = [
    ("CC(C)CN(c1ccc([C@H](C)CC(=O)O)cc1Nc1nc(Cl)ns1)C1CCOCC1 [Example 25]", "Not satisfied"),
    ("CC(C)CN(c1ccc([C@H](C)CC(=O)O)cc1Nc1nc(C(F)(F)F)ns1)[C@H]1CC[C@@H](O)CC1 [Example 59]", "Not satisfied"),
    ("COCCc1nnc(Nc2cc([C@H](C)CC(=O)O)ccc2N(CC(C)C)C2CCCCC2)[nH]1 [example 214]", "Not satisfied"),
    ("CO[C@H]1CC[C@@H](N(CC(C)C)c2ccc([C@H](C)CC(=O)O)cc2Nc2nc(Cl)ns2)CC1 [Example 48]", "Satisfied"),
]

###

# STUDY SYSTEM: indoleamine 2, 3-dioxygenase (IDO1) (Homo sapiens, UniProt P14902)
# TEST DETAILS: IDO1 PBMC RapidFire MS assay (kynurenine detection by mass spectrometry)
# Format: cell-based
# Design: to induce the expression of indoleamine 2, 3-dioxygenase (IDO1); host or cells: human PBMC stimulated with IFN-gamma and LPS
# MEASUREMENT CONDITIONS: human PBMC stimulated with IFN-γ and LPS, 2 days, pIC50, read-out: PBMC PXC50 (converted)
Catalogue of IC50 values

# MOLECULE, STUDY SYSTEM, IC50 / nM
records = [
    ("CO[C@H]1CC[C@@H](N(CC(C)C)c2ccc([C@H](C)CC(=O)O)cc2Nc2nc(C(F)(F)F)c[nH]2)CC1", "indoleamine 2, 3-dioxygenase (IDO1) (Homo sapiens, UniProt P14902)", 3.98),
    ("CC(C)CN(CC(C)C)c1ccc([C@@H]2C[C@@H]2C(=O)O)cc1Nc1nc(C(F)(F)F)ns1 (single isomer, unassigned)", "indoleamine 2, 3-dioxygenase (IDO1) (Homo sapiens, UniProt P14902)", 50.1),
    ("CC(C)CN(c1ccc(C(C)CC(=O)O)cc1NC1CCC(C)CC1)C1CCCCC1 (stereo not shown)", "indoleamine 2, 3-dioxygenase (IDO1) (Homo sapiens, UniProt P14902)", 631),
    ("CC(C)CN(CC(C)C)c1ccc(C(C)CC(=O)O)cc1Nc1nc(-c2ccccc2)ns1 (stereo not shown)", "indoleamine 2, 3-dioxygenase (IDO1) (Homo sapiens, UniProt P14902)", 2000),
]

###

# STUDY SYSTEM: indoleamine 2, 3-dioxygenase (IDO1) (Homo sapiens, UniProt P14902)
# TEST DETAILS: IDO1 HeLa RapidFire MS assay (kynurenine detection by mass spectrometry)
# Type: cell-based
# Set-up: to induce the expression of indoleamine 2, 3-dioxygenase (IDO1)
# MEASUREMENT CONDITIONS: HeLa cells, pIC50, read-out: IDO1_HELA_PXC50 (converted)
OBSERVABLE: IC50 (nM)

# MOLECULE, OBSERVABLE, OP, MEASURED
records = [
    ("CC(C)CN(c1ccc(C(C)CC(=O)O)cc1NCc1ncccn1)C1CCCCC1 (stereo not shown)", "IC50", ">", 10000),
    ("CC(C)CN(CC(C)C)c1ccc(C2CC2C(=O)O)cc1Nc1nc(C(F)(F)F)ns1 (stereo not shown)", "IC50", "=", 12.6),
    ("CC(C)CN(c1ccc([C@H](C)CC(=O)O)cc1Nc1cnc(C#N)cn1)C1CCOCC1", "IC50", "=", 5.01),
    ("CC(C)CN(c1ccc([C@@H](C)CC(=O)O)cc1Nc1ccnc(Cl)n1)C1CCCCC1", "IC50", "=", 3.98),
    ("CC[C@H](CC(=O)O)c1ccc(N(CC(C)C)CC(C)C)c(Nc2nc(C(F)(F)F)ns2)c1", "IC50", "=", 2.51),
    ("COCCN(c1ccc(-c2ccccc2C(=O)O)cc1Nc1nc2ccccc2o1)C1CCCCC1", "IC50", "=", 398),
    ("CC(C)CN(c1ccc(-c2ccccc2C(=O)O)cc1Nc1nc(C(F)(F)F)ns1)[C@H]1CC[C@@H](O)CC1", "IC50", "=", 100),
    ("CC(C)CN(c1ccc([C@H](C)CC(=O)O)cc1Nc1ccc(Cl)nc1)[C@H]1CC[C@@H](O)CC1", "IC50", "=", 10),
    ("CC(C)CN(c1ccc(-c2cnccc2C(=O)O)cc1Nc1nc2ccccc2o1)C1CCCCC1", "IC50", "=", 1260),
    ("CC(=O)Nc1ccc(Nc2cc(C(C)CC(=O)O)ccc2N(CC(C)C)CC(C)C)nc1 (stereo not shown)", "IC50", "=", 6310),
    ("CC(C)CN(c1ccc(-c2ccccc2C(=O)O)cc1Nc1nc(C(F)(F)F)ns1)C1CCNCC1", "IC50", "=", 5010),
    ("CC(C)CN(c1ccc(C(C)(C)CC(=O)O)cc1Nc1nc(C(F)(F)F)ns1)C1CCOCC1", "IC50", "=", 3.98),
    ("CC(C)CN(CC(C)C)c1ccc(C(C)CC(=O)O)cc1Nc1ccc(CO)cn1 (stereo not shown)", "IC50", "=", 200),
    ("CC(C)CN(c1ccc(C(C)CC(=O)O)cc1NC1CCS(=O)(=O)CC1)C1CCCCC1 (stereo not shown)", "IC50", "=", 3160),
    ("CC(C)CN(c1ccc(-c2ccccc2C(=O)O)cc1Nc1nc(C(F)(F)F)ns1)C1CCN(C)CC1", "IC50", "=", 1000),
    ("CC(C)CN(c1ccc([C@H](C)CC(=O)O)cc1Nc1nc(C2CC2)ns1)C1CCOCC1", "IC50", "=", 6.31),
]

###

# STUDY SYSTEM: indoleamine 2, 3-dioxygenase (IDO1) (Homo sapiens, UniProt P14902)
# TEST DETAILS: IDO1 PBMC RapidFire MS assay (kynurenine detection by mass spectrometry)
# Type: cell-based
# Design: to induce the expression of indoleamine 2, 3-dioxygenase (IDO1); host or cells: human PBMC stimulated with IFN-gamma and LPS
# MEASUREMENT CONDITIONS: human PBMC stimulated with IFN-γ and LPS, 2 days, pIC50, read-out: PBMC PXC50 (converted)
# Description: IDO1 PBMC RapidFire MS Assay Compounds of the present invention were tested via high-throughput cellular assays utilizing detection of kynurenine via mass spectrometry and cytotoxicity as end-points. […] Cellular toxicity due to the effect of compound treatment was measured using CellTiter-Glo® reagent (CTG) (Promega Corporation, Madison, Wis.), which is based on luminescent detection of ATP, an indicator of metabolically active cells. […]
With a cut-off of 200 nM, any IC50 strictly below it is called YES; any IC50 meeting it or above is called NO.

# COMPOUND, CLASS
rows = [
    ("CC(C)CN(c1ccc(C(C)CC(=O)O)cc1NC1=NC(=O)[C@H](C)N1)C1CCCCC1 (some centres unmarked) [example 164]", "NO"),
    ("CC(C)CN(c1ccc(-c2ccccc2C(=O)O)cc1Nc1nc(C(F)(F)F)ns1)C1CC2(C1)CN(C(=O)OC(C)(C)C)C2 [Example 97]", "YES"),
    ("CNC(=O)c1nnc(Nc2cc(C(C)CC(=O)O)ccc2N(CC(C)C)C2CCCCC2)s1 (centres unmarked) [Example 79]", "YES"),
    ("CC(C)CN(c1ccc([C@H](C)CC(=O)O)cc1Nc1ccc(Cl)nc1)C1CCOCC1 [Example 6]", "YES"),
    ("CC(C)CN(c1ccc(C(C)CC(=O)O)cc1NC1=NC(=O)[C@@H](C)N1)C1CCCCC1 (some centres unmarked) [example 163]", "NO"),
    ("CC(C)CN(c1ccc([C@H](C)CC(=O)O)cc1Nc1ncc(C(F)(F)F)cn1)C1CCOCC1 [example 241]", "YES"),
]

###

# STUDY SYSTEM: UniProt P14902
# TEST DETAILS: IDO1 PBMC RapidFire MS assay (kynurenine detection by mass spectrometry)
# Assay type: cell-based
# Set-up: to induce the expression of indoleamine 2, 3-dioxygenase (IDO1); host or cells: human PBMC stimulated with IFN-gamma and LPS
# MEASUREMENT CONDITIONS: human PBMC stimulated with IFN-γ and LPS, 2 days, pIC50, read-out: PBMC PXC50 (converted)
This listing pairs molecules with measured IC50.
OBSERVABLE: IC50

# MOLECULE, STUDY SYSTEM, OBSERVABLE, MEASURED
records = [
    ("CC(C)CN(c1ccc([C@H](C)CC(=O)O)cc1Nc1nc(C(F)(F)F)ns1)C1CCOCC1", "UniProt P14902", "IC50", "2.51 nM"),
    ("CC(C)CN(c1ccc(-c2cccnc2C(=O)O)cc1Nc1nc(C(F)(F)F)ns1)C1CCOCC1", "UniProt P14902", "IC50", "31.6 nM"),
    ("CC(C)CN(c1ccc(-c2ccccc2C(=O)O)cc1Nc1nc(C#N)ns1)C1CCCCC1", "UniProt P14902", "IC50", "3.98 nM"),
    ("CC[C@@H](CC(=O)O)c1ccc(N(CC(C)C)C2CCCCC2)c(Nc2nc(Cl)ns2)c1", "UniProt P14902", "IC50", "0.316 nM"),
    ("CC(C)CN(c1ccc([C@H](C)CC(=O)O)cc1Nc1nc(C(=O)NC2CC2)c[nH]1)C1CCOCC1", "UniProt P14902", "IC50", "> 10000 nM"),
    ("CC(C)CN(c1ccc(C(C)CC(=O)O)cc1NC1=NC(=O)[C@H](c2ccccc2)N1)C1CCCCC1 (stereo partly shown)", "UniProt P14902", "IC50", "1580 nM"),
    ("CC(C)CN(c1ccc(-c2ccccc2C(=O)O)cc1Nc1nc(C(F)(F)F)ns1)[C@H]1CC[C@@H](O)CC1", "UniProt P14902", "IC50", "20 nM"),
]
